Target: HDAC2 (Homo sapiens, UniProt Q92769)
Construct: purchased BPS Bioscience 50002
Sequence (Q92769 whole entry): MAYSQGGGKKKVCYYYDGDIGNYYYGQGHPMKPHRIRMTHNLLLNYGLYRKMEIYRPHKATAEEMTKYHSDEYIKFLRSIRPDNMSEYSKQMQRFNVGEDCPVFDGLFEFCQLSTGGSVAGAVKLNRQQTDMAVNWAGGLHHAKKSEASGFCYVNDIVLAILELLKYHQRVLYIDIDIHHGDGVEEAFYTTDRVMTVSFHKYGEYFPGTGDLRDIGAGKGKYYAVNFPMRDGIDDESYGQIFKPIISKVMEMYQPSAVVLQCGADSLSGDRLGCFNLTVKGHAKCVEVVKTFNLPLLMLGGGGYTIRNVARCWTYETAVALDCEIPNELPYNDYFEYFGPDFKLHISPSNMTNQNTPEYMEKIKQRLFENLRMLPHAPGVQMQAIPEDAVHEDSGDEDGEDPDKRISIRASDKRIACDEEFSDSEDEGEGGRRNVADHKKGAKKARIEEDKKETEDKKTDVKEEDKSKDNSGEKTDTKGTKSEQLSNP
Experiment: HDAC-Glo I/II assay, HDAC2
Assay type: biochemical
Conditions: recombinant human HDAC2, HDAC-Glo; read-out: pIC50 HDAC2 Glo (converted)
test_readout: IC50

For the compound shown here, CN(CCCC(=O)NO)CCNC(=O)c1cccc(N)c1 [DKFZ-747] , give the reported IC50. > 100 µM

Any idea what IC50 was measured for Cc1[nH]c2ccccc2c1CC(=O)NCCN(C)CCCC(=O)NO [DKFZ-749] ? > 100 µM

Query (compound): CN(CCCC(=O)NO)CCNC(=O)c1ccc2ccccc2c1 [DKFZ-769] ; field requested: IC50 5.01 µM

Consider the compound shown here: O=C(CCCN(CCC(=O)Nc1ccccc1)C1CC1)NO [DKFZ-724] What is its recorded IC50? > 200 µM

Others:
Give the measured IC50 of CN(CCCC(=O)NO)CCNC(=O)c1cccc2cn[nH]c12 [DKFZ-757] . > 100 µM

---

Molecular target: UniProt Q9BY41
Assay: HDAC8 (FDL) Fluor de Lys assay
Type: biochemical
Parameters: obtained from C; Romier (academic laboratory, not a vendor)
Conditions: at 10 μM; read-out: HDAC8 (FDL) percent enzyme inhibition
test_readout: inhibition at 10 µM (%)

Bench note: what inhibition at 10 µM did `O=C(NO)C1CCN(CC(c2ccccc2)c2ccccc2)CC1` show? 75

// lookup inhibition at 10 µM for `O=C(NO)C1CCN(CCc2ccc(Br)cc2)CC1` 69

I would be grateful if you could share the reported inhibition at 10 µM for `O=C(NO)C1CCN(CCc2ccccc2)CC1` . 56

Give its inhibition at 10 µM value. Item: `O=C(NO)C1CCN(CCc2cccc(Br)c2)CC1` 70

Form field: reported inhibition at 10 µM of `O=C(NO)C1CCN(CCCc2ccccc2)CC1` 48

Recorded inhibition at 10 µM of `O=C(NO)C1CCN(Cc2ccc(-c3ccccc3)cc2)CC1` , please. 70

Recorded inhibition at 10 µM of `O=C(NO)C1CCN(Cc2ccccc2)CC1` , please. 61

---

Target: HDAC2 (Homo sapiens, UniProt Q92769)
Construct: purchased BPS Bioscience 50002
Assay: HDAC-Glo I/II assay, HDAC2
Format: biochemical
Conditions: recombinant human HDAC2, HDAC-Glo; read-out: pIC50 HDAC2 Glo (converted)
Below, each entry is listed with its recorded IC50.

Value lookup for IC50; key = `C[N+](C)(CCCC(=O)[N-]O)CCNC(=O)c1ccccc1` > 100 µM

Fill blank: measured IC50 of the molecule `CCCCN(CCCC(=O)NO)CCC(=O)Nc1ccccc1` is ____. > 200 µM

Which IC50 reading was recorded for the molecule `CCCN(CCCC(=O)NO)CCC(=O)Nc1ccccc1` ? > 200 µM

Consider the molecule shown here: `O=C(CC1CN(CCC(=O)Nc2ccccc2)C1)NO` What is its recorded IC50? 79.4 µM

Item under review: `CN(CCCC(=O)NO)CCNC(=O)c1ccccc1Br` . Reported IC50? > 100 µM

Returns the measured IC50 for the input molecule. Input: `O=C(CCCN(CCC(=O)Nc1ccccc1)Cc1ccccc1)NO` ~126 µM

---

Molecular target: HDAC8 (Homo sapiens)
Sequence (Q9BY41 1-377): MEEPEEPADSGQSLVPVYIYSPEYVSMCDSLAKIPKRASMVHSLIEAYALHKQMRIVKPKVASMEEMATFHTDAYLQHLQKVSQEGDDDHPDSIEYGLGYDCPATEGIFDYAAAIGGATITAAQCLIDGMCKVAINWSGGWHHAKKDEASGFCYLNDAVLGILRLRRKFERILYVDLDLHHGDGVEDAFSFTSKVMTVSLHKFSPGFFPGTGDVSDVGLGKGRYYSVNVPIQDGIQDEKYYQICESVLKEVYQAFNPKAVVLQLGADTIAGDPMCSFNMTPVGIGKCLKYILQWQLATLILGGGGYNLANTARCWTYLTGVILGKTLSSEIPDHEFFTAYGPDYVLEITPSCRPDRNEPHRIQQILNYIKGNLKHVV
Assay: HDAC8 (FDL) Fluor de Lys assay
Format: biochemical
Design: obtained from C; Romier (academic laboratory, not a vendor)
Conditions: at 1 μM; read-out: HDAC8 (FDL) percent enzyme inhibition
test_readout: inhibition at 1 µM (%)

Answered cases to consult:
// inhibition at 1 µM lookup, key: `O=C(NO)C1CCN(CCc2ccccc2)CC1` 27

Form field: reported inhibition at 1 µM of `O=C(NO)C1CCN(CC(c2ccccc2)c2ccccc2)CC1` 42

What does the data say about its inhibition at 1 µM? Entry: `O=C(NO)C1CCN(CCc2ccc(Br)cc2)CC1` 33

Fill in the blank: the reported inhibition at 1 µM of `O=C(NO)C1CCN(Cc2ccccc2)CC1` is ____. 36

GET /values?readout=inhibition at 1 µM&item= `O=C(NO)C1CCN(CCc2cccc(Br)c2)CC1` 27

(P) O=C(NO)C1CCN(CCCc2ccccc2)CC1
(Q) O=C(NO)C1CCN(Cc2ccc(-c3ccccc3)cc2)CC1
For this pair, P and Q , which shows a numerically higher inhibition at 1 µM? Please reply using the label of the selected record. Q
(Q: 37%, P: 20%)
